experimentalTarget: HLA-DR DRB1*0101 (human)
protocolText: competition with 125I probe, purified MHC II
observedProperty: IC50 (nM)
Answers are plain numbers, in nM.

# binder, observedProperty, obsValue
data = [
    ("DTPYLDITYHFVMQRLPL [Torp. Ach Rec. 195-212]", "IC50", 385),
]

**Q:** I'd like to know its IC50. The binder in question is YLDPLIRGLLARPAKLQV [NP7 (TPO Y535-551)]
**A:** 1.6
